System: Neisseria meningitidis (N. meningitidis) 13090
EXPERIMENT DESCRIPTION: Antibacterial activity, MIC, N. meningitidis 13090
Format: cell-based
EXPERIMENTAL SETUP: Neisseria meningitidis; N. meningitidis 13090; read-out: MIC 13090
Would you mind telling me the reported MIC of each entry?

Measured MIC, CCc1c(-c2ccc(N3CCC(N4CCCC4)C3)cc2)[nH]c(=O)c(C(=O)O)c1O.Cl (stereo not drawn) : < 1 µg/mL

Kindly note the recorded MIC for CCc1cc(C(=O)O)c(=O)[nH]c1-c1ccc(N2[C@H](COC)CC[C@H]2COC)cc1 , which is 3.5 to 12.5 µg/mL

Memo: CN(C)c1ccc(-c2[nH]c(=O)c(C(=O)O)cc2CN)cc1.Cl , reported MIC: 3.5 to 12.5 µg/mL

Lab note: CCc1cc(C(=O)O)c(=O)[nH]c1-c1ccc(N(C)CCO)cc1 gave MIC of < 1 µg/mL

The reported value for CCc1cc(C(=O)O)c(=O)[nH]c1-c1ccc(N2CCN(C(=O)OC(C)(C)C)CC2)c(F)c1 in terms of MIC is 3.5 to 12.5 µg/mL

Form field MIC, entry CCc1cc(C(=O)O)c(=O)[nH]c1-c1ccc(N2CCNCC2)cc1.O=C(O)C(F)(F)F : 3.5 to 12.5 µg/mL

GET /value?item= CCc1cc(C(=O)O)c(=O)[nH]c1-c1ccc(N(C)C)cc1 &field=MIC returns < 1 µg/mL

In plain terms, CN(C)c1ccc(-c2[nH]c(=O)c(C(=O)O)cc2Cc2ccccc2)cc1 has a documented MIC of 3.5 to 12.5 µg/mL

MIC reading for CCc1cc(C(=O)O)c(=O)[nH]c1-c1ccc(N2CCC[C@H]2COC)cc1 : < 1 µg/mL

Recorded result, CN(C)c1ccc(-c2[nH]c(=O)c(C(=O)O)cc2C2CC2)cc1 , MIC: < 1 µg/mL

Reported MIC for CCc1cc(C(=O)O)c(=O)[nH]c1-c1ccc(N2CC[C@@H](F)C2)cc1 was < 1 µg/mL

Input CCc1c(-c2ccc(N3C[C@H]4CCC[C@@H](N(C)C)[C@H]4C3)cc2)[nH]c(=O)c(C(=O)O)c1O.Cl . Output MIC: < 1 µg/mL

Field MIC (entry CCc1cc(C(=O)O)c(=O)[nH]c1-c1ccc(N2CCCCC2)cc1 ) reads < 1 µg/mL

Recorded MIC (compound CCc1cc(C(=O)O)c(=O)[nH]c1-c1ccc(N2C[C@@H](N)[C@H](OC)C2)cc1.Cl ): < 1 µg/mL

Per the records, this compound ( CCc1cc(C(=O)O)c(=O)[nH]c1-c1ccc(N2CCC(CN(C)C)C2)cc1.O=C(O)C(F)(F)F (stereo not drawn) ) has MIC equal to < 1 µg/mL

According to the records, this compound CN(C)c1ccc(-c2[nH]c(=O)c(C(=O)O)c(O)c2Cc2ccccc2)cc1 displays MIC of < 1 µg/mL

The reported value for CN(C)c1ccc(-c2[nH]c(=O)c(C(=O)O)cc2C#N)cc1 in terms of MIC is 12.5 to 150 µg/mL

// MIC lookup, compound = CCc1cc(C(=O)O)c(=O)[nH]c1-c1ccc(N2CCC(N3CCOCC3)C2)cc1.O=C(O)C(F)(F)F (stereo not drawn) , result: < 1 µg/mL
